Can you tell me pKi for the items I'm about to list?
TARGET_UNDER_TEST: calpain-I (Homo sapiens, UniProt P07384)
Construct: calpain-I—isolated from human erythrocytes
Sequence (P07384 whole entry): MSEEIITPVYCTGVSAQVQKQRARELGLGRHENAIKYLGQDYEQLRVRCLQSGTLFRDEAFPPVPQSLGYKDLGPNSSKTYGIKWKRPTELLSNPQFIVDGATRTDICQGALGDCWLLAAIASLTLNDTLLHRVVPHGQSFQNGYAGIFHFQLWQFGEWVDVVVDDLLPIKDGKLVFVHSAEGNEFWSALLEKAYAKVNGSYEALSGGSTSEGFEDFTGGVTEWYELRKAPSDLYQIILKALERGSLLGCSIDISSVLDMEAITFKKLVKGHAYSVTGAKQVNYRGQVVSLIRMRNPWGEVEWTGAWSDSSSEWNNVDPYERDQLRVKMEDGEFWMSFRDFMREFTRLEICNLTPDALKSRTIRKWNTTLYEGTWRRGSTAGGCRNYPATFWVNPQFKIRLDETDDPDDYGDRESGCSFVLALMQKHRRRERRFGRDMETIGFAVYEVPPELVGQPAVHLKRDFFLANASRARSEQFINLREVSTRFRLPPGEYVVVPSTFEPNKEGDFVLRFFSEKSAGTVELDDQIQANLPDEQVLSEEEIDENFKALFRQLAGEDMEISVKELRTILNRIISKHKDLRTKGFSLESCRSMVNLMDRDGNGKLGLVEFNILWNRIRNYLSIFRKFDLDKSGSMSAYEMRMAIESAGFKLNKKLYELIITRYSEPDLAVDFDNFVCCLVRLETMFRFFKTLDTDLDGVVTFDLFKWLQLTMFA
Sequence (P04632 whole entry partner): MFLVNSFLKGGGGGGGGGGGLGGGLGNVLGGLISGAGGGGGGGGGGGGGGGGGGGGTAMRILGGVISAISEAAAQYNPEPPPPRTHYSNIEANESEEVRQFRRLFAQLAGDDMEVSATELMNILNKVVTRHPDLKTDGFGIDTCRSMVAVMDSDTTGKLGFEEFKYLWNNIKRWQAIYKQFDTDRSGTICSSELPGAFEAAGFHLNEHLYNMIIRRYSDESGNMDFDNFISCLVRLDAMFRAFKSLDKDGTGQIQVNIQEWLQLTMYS
METHOD_DESCRIPTION: Calpain I kinetic fluorescence enzyme inhibition assay
ASSAY_CONTEXT: calpain-I from human erythrocytes, Suc-Leu-Tyr-AMC, pH 7.3; apparent Ki from IC50 by Cheng-Prussoff
Description: Testing for blockade of the corresponding enzymic activities was carried out by means of kinetic fluorescence assays (excitation 390 nm, emission 460 nm). Apparent Ki values were calculated from the experimentally determined IC50 values by the Cheng-Prussoff relation assuming a reversible competitive enzyme inhibition. […]
pKi: −log10 of the molar value.

Sample O=C(NCc1ccccc1)C(=O)C(Cc1ccccc1)NC(=O)c1cccnc1-n1ccc(-c2ccccc2)n1 (stereo not drawn) ; pKi observed: > 6.60

Query NC(=O)C(=O)C(Cc1ccccc1)NC(=O)c1cccnc1-n1ccc(-c2ccc(F)cc2)n1 (stereo not drawn) [Example 18, reference compound] yields pKi of > 6.60

Entry O=C(NC1CC1)C(=O)C(Cc1ccccc1)NC(=O)c1cccnc1-n1ccc(-c2ccccc2)n1 (stereo not drawn) ; pKi = > 6.60

Just so you know, measured pKi for O=C(NCc1ccccn1)C(=O)C(Cc1ccccc1)NC(=O)c1cccnc1-n1ccc(-c2ccc(F)cc2)n1 (stereo not drawn) came out at 6.40 to 6.60

Briefly, pKi measured for O=C(NCC1CC1)C(=O)C(Cc1ccccc1)NC(=O)c1cccnc1-n1ccc(-c2ccccc2)n1 (stereo not drawn) : 6.10 to 6.40

compound O=C(NC1CC1)C(=O)C(Cc1ccccc1)NC(=O)c1cccnc1-n1ccc(-c2ccc(F)cc2)n1 (stereo not drawn) , pKi observed: 6.00 to 6.10

Data point: O=C(NC1CC1)C(=O)C(Cc1ccc(CN2CCOCC2)cc1)NC(=O)c1cccnc1-n1ccc(-c2ccccc2)n1 (stereo not drawn) ; pKi = 6.10 to 6.40

The compound O=C(NCc1ncco1)C(=O)C(Cc1ccccc1)NC(=O)c1cccnc1-n1ccc(-c2ccccc2)n1 (stereo not drawn) showed pKi equal to 6.40 to 6.60

GET /value?item= O=C(NCc1ccccn1)C(=O)C(Cc1ccccc1)NC(=O)c1cccnc1-n1ccc(-c2ccccc2)n1 (stereo not drawn) &field=pKi returns > 6.60

// sample CNC(=O)C(=O)C(Cc1ccccc1)NC(=O)c1cccnc1-n1ccc(-c2ccccc2)n1 (stereo not drawn) [Example 7, reference compound] , its pKi was 6.40 to 6.60

get_value(item= O=C(NC1CC1)C(=O)C(Cc1ccccc1)NC(=O)c1cccnc1-n1cc(F)c(-c2ccccc2)n1 (stereo not drawn) , readout=pKi) returns 6.10 to 6.40

Given item O=C(NC1CCC1)C(=O)C(Cc1ccccc1)NC(=O)c1cccnc1-n1ccc(-c2ccccc2)n1 (stereo not drawn) , the value recorded as its pKi is 6.10 to 6.40

The reported value for O=C(NCCc1ccccc1)C(=O)C(Cc1ccccc1)NC(=O)c1cccnc1-n1ccc(-c2ccccc2)n1 (stereo not drawn) in terms of pKi is 6.40 to 6.60

pKi measured on O=C(NCCc1ccccc1)C(=O)C(Cc1ccccc1)NC(=O)c1cccnc1-n1ccc(-c2ccc(F)cc2)n1 (stereo not drawn) = 6.40 to 6.60

Form field pKi, entry C=CCNC(=O)C(=O)C(Cc1ccccc1)NC(=O)c1cccnc1-n1ccc(-c2ccccc2)n1 (stereo not drawn) : 6.10 to 6.40
